Origin of measurements: ChEMBL document CHEMBL1772956

Task for the reader: assign each of the following molecules its reported Emax.
- SYSTEM: Kappa-type opioid receptor (Homo sapiens)
- Sequence (P41145 whole entry): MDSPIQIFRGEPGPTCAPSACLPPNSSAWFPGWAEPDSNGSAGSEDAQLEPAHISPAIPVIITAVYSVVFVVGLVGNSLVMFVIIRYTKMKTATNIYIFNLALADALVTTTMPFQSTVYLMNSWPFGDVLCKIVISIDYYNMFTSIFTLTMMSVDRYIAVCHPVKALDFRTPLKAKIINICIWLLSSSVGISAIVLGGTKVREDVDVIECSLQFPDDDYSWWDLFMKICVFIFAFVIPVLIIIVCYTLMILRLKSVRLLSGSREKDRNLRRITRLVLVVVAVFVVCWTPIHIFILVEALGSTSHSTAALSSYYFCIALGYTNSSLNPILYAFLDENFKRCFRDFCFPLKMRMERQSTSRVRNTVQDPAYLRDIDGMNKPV
- ASSAY EXPLANATION: Agonist activity at human kappa-opioid receptor expressed in CHO cells assessed as stimulation of [35S]GTPgammaS binding after 60 mins by scintillation counting relative to control
- Format: functional, cell-based
Write it as a number; the unit % goes unstated.

IN: For the molecule O=C(CCCCCCCCC(=O)Oc1ccc2c(c1)[C@@]13CCCC[C@@]1(O)[C@@H](C2)N(CC1CCC1)CC3)Oc1ccc2c(c1)[C@@]13CCCC[C@H]1[C@@H](C2)N(CC1CCC1)CC3 , what Emax is on record?
OUT: 100

IN: For the molecule CO[C@@]12CCCC[C@@]13CCN(CC1CCC1)[C@@H]2Cc1ccc(O)cc13 , what Emax is on record?
OUT: 90

IN: For the molecule CO[C@@]12CCCC[C@@]13CCN(CC1CCC1)[C@@H]2Cc1ccc(OC(=O)CCCCCCCCC(=O)OCc2ccccc2)cc13 , what Emax is on record?
OUT: 90

---

Below are Ki values recorded for Mu-type opioid receptor (Homo sapiens, UniProt P35372).
The answer should read as a number with its unit following.

IN: Ki of O=C(CCCCCCCCC(=O)Nc1nc2cc3c(cc2s1)C[C@@H]1[C@@H]2CCCC[C@]32CCN1CC1CC1)Nc1nc2cc3c(cc2s1)C[C@@H]1[C@@H]2CCCC[C@]32CCN1CC1CC1 on Mu-type opioid receptor (Homo sapiens, UniProt P35372)?
OUT: 8.8 nM

IN: Ki of O=C(CCCCCCCCC(=O)Oc1ccc2c(c1)[C@@]13CCCC[C@@]1(O)[C@@H](C2)N(CC1CCC1)CC3)Oc1ccc2c(c1)[C@@]13CCCC[C@H]1[C@@H](C2)N(CC1CCC1)CC3 on Mu-type opioid receptor (Homo sapiens, UniProt P35372)?
OUT: 0.089 nM

IN: Ki of C=CCN1CC[C@]23c4c5ccc(OC(=O)CCCCCCCCC(=O)Oc6ccc7c(c6)[C@@]68CCCC[C@@]6(O)[C@@H](C7)N(CC6CCC6)CC8)c4O[C@H]2C(=O)CC[C@@]3(O)[C@H]1C5 on Mu-type opioid receptor (Homo sapiens, UniProt P35372)?
OUT: 0.82 nM

IN: Ki of CO[C@@]12CCCC[C@@]13CCN(CC1CCC1)[C@@H]2Cc1ccc(OC(=O)CCCCCCCCC(=O)Oc2ccc4c(c2)[C@@]25CCCC[C@@]2(OC)[C@@H](C4)N(CC2CCC2)CC5)cc13 on Mu-type opioid receptor (Homo sapiens, UniProt P35372)?
OUT: 0.26 nM

IN: Ki of CO[C@@]12CCCC[C@@]13CCN(CC1CCC1)[C@@H]2Cc1ccc(O)cc13 on Mu-type opioid receptor (Homo sapiens, UniProt P35372)?
OUT: 0.14 nM

IN: Ki of CO[C@@]12CCCC[C@@]13CCN(CC1CCC1)[C@@H]2Cc1ccc(OC(=O)CCCCCCCCC(=O)OCc2ccccc2)cc13 on Mu-type opioid receptor (Homo sapiens, UniProt P35372)?
OUT: 0.15 nM

IN: Ki of c1c2c(cc3sc(NCCCCCCCCCCNc4nc5cc6c(cc5s4)C[C@@H]4[C@@H]5CCCC[C@]65CCN4CC4CC4)nc13)C[C@@H]1[C@@H]3CCCC[C@]23CCN1CC1CC1 on Mu-type opioid receptor (Homo sapiens, UniProt P35372)?
OUT: 2.5 nM

IN: Ki of C=CCN1CC[C@]23c4c5ccc(OC(=O)CCCCCCCCC(=O)Oc6ccc7c(c6)[C@@]68CCCC[C@@]6(OC)[C@@H](C7)N(CC6CCC6)CC8)c4O[C@H]2C(=O)CC[C@@]3(O)[C@H]1C5 on Mu-type opioid receptor (Homo sapiens, UniProt P35372)?
OUT: 0.55 nM
